# assay: physchem
# condition.info: 1-octanol/aqueous buffer, pH 7.4
measurement.type: logD

Ask | # query: logD of entry C[C@@H]1Cc2c([nH]c3ccccc23)[C@@H](c2ccc(OCCNCCCF)cc2F)N1CC(C)(F)F
Reply | 4.1

Ask | Form field: reported logD of COc1cc(OCCNCCCF)ncc1[C@@H]1c2[nH]c3ccccc3c2C[C@@H](C)N1CC1(F)COC1
Reply | 2.3

Ask | // returns reported logD for input C[C@@H]1Cc2c([nH]c3ccccc23)[C@@H](c2ccc(OCCNCCCF)nc2)N1CC1(F)COC1
Reply | 2.5

Ask | Any idea what its logD is? The compound is COc1cc(OCCNCCCF)ncc1[C@@H]1c2[nH]c3ccccc3c2C[C@@H](C)N1CC1(F)CC1
Reply | 2.4

Ask | Any idea what its logD is? The compound is CC(C)CN1[C@H](c2ccc(OCCNCCC(F)F)cc2)c2[nH]c3ccccc3c2C[C@H]1C
Reply | 4.6

Ask | What value of measured logD is listed for C[C@@H]1Cc2c([nH]c3ccccc23)[C@@H](c2ccc(OCCNCCCF)cn2)N1CC(C)(C)F ?
Reply | 3.4

Ask | What logD value was documented for this compound, C[C@@H]1Cc2c([nH]c3ccccc23)[C@@H](c2c(F)cc(OCCNCCCF)cc2F)N1CC(F)F ?
Reply | 3.4

Ask | Quick check: logD of COc1nc(OCCNCCCF)ccc1[C@@H]1c2[nH]c3ccccc3c2C[C@@H](C)N1CC(F)F ?
Reply | 3.4

Ask | Give its logD value. Item: C[C@@H]1Cc2c([nH]c3ccccc23)[C@@H](c2c(F)cc(NCCNCCCF)cc2F)N1CC(F)(F)CO
Reply | 2.6

====

Answer each item with its documented logD.
# assay: physchem
# condition.info: 1-octanol/aqueous buffer, pH 7.4
Form: value (number only, do not type unit).

Ask | Requested read-out: logD. Entry: CC(C)CN1[C@H](c2ccc(OCCNCCCF)cc2)c2[nH]c3ccccc3c2C[C@H]1C [Example 2]
Reply | 3.6

Ask | For C[C@@H]1Cc2c([nH]c3ccccc23)[C@@H](c2c(F)cc(NCCNCCCF)cc2F)N1CC1(F)COC1 [Example 44] , what is its reported logD?
Reply | 3.1

Ask | Reported logD for C[C@@H]1Cc2c([nH]c3ccccc23)[C@@H](c2ccc(OCCNCCCF)cc2)N1CC(F)F [Example 56] : what is it?
Reply | 3.3

Ask | Name the recorded logD for COc1cc(OCCNCCCF)cnc1[C@@H]1c2[nH]c3ccccc3c2C[C@@H](C)N1CC(C)(C)F [Example 35] .
Reply | 3.8

Ask | Look up logD: COc1cc(NCCNCCCF)ccc1[C@@H]1c2[nH]c3ccccc3c2C[C@@H](C)N1CC(F)F [Example 61]
Reply | 3.4

Ask | Could you share which logD value was measured for C[C@H](COc1ccc([C@@H]2c3[nH]c4ccccc4c3C[C@@H](C)N2CC2(F)COC2)cc1)NCCCF [Example 28] ?
Reply | 2.9

====

# target.or.system: Estrogen Receptor (ERα) in MCF-7 cells (Homo sapiens (Human))
# Sequence (P03372 whole entry): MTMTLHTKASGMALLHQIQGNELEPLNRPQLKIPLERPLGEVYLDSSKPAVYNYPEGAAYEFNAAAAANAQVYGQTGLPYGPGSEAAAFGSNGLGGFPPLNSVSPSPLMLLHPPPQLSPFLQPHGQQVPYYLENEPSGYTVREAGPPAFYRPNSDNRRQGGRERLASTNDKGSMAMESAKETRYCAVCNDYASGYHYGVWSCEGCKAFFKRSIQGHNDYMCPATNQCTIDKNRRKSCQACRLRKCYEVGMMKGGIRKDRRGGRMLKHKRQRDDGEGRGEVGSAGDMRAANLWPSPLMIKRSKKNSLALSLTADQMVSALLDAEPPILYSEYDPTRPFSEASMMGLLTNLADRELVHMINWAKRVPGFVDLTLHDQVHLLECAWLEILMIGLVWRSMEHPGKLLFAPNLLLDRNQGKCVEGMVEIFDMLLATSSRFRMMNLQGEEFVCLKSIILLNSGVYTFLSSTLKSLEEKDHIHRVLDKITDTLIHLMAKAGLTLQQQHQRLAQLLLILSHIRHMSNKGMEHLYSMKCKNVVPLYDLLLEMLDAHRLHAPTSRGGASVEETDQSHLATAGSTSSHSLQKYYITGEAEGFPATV
# assay: MCF-7 ER down-regulation assay (immuno-fluorescence)
# condition.info: 18-22 hours incubation
I'd be grateful if you could share measured IC50 for these entries.
Supply the numeric figure in nM, leaving out any unit text.

Ask | Tell me the measured IC50 of COc1cc(NCCNCCCF)ncc1[C@@H]1c2[nH]c3ccccc3c2C[C@@H](C)N1CC(F)F [Example 67] , please.
Reply | 0.87

Ask | Entry C[C@@H]1Cc2c([nH]c3ccccc23)[C@@H](c2ccc(OCCNCCCF)cn2)N1CC1(F)CC1 [Example 31] : reported IC50 = ?
Reply | 22

Ask | Fill blank: measured IC50 of the compound C[C@@H]1Cc2c([nH]c3ccccc23)[C@@H](c2c(F)cc(N(C)CCNCCCF)cc2F)N1CC(F)F [Example 49] is ____.
Reply | 0.25

Ask | I am curious: what IC50 value has been reported for C[C@@H]1Cc2c([nH]c3ccccc23)[C@@H](c2c(F)cc(OCCNCCC(F)F)cc2F)N1CC(C)(C)F [Example 3] ?
Reply | 0.14

Ask | IC50 for C[C@@H]1Cc2c([nH]c3ccccc23)[C@@H](c2c(F)cc(NCCNCCCF)cc2F)N1CC1(F)CC1 [Example 9] ?
Reply | 0.22

Ask | I'd like to know its IC50. The compound in question is COc1nc(NCCNCCCF)ccc1[C@@H]1c2[nH]c3ccccc3c2C[C@@H](C)N1CC(C)(F)F [Example 78]
Reply | 0.21

Ask | Could you tell me which IC50 is on file for C[C@@H]1Cc2c([nH]c3ccccc23)[C@@H](c2c(F)cc(N(C)CCNCCCF)cc2F)N1CC1(F)CC1 [Example 45] ?
Reply | 0.31

Ask | Report IC50 for C[C@@H]1Cc2c([nH]c3ccccc23)[C@@H](c2ccc(OCCNCCCF)cc2)N1C[C@H](F)CF (single isomer, unassigned) [Example 26] please.
Reply | 0.38
